Tested on: Staphylococcus aureus Strain 1 (BSAC04(1)) (Clinical isolate from Glasgow Royal Infirmary)
Assay: MIC, Staphylococcus aureus Strain 1
Format: cell-based
Conditions: Staphylococcus aureus; value in parentheses; na = not active; read-out: Minimum inhibitory concentrations (MICs), S aureus 1
I'd appreciate it if you marked entries Met when MIC is lower than 4 µg/mL and Not met when it is not.

Would you kindly verify if MIC of CN(C)CCCNC(=O)c1cc(NC(=O)c2cc(NC(=O)c3ccc(/C=C/c4ccncc4)cc3)cn2C)cn1C [Example 7] is strictly less than 4 µg/mL?
Not met

Would you kindly verify if MIC of COc1cccc(/C=C/c2ccc(C(=O)Nc3cc(C(=O)Nc4cc(C(=O)NCCCN(C)C)n(C)c4)n(C)c3)cc2)c1 [Example 4] is strictly less than 4 µg/mL?
Not met

Would you kindly verify if MIC of Cn1cc(NC(=O)c2cc(NC(=O)c3csc(/C=C/c4ccc5ccccc5n4)n3)cn2C)cc1C(=O)NCCN1CCOCC1 [Example 12] is strictly less than 4 µg/mL?
Not met

Would you kindly verify if MIC of COc1cccc(/C=C/c2ccc(C(=O)Nc3cc(C(=O)Nc4cc(C(=O)NCCN5CCOCC5)n(C)c4)n(C)c3)cc2)c1 [Example 1] is strictly less than 4 µg/mL?
Met

Would you kindly verify if MIC of CN(C)CCCNC(=O)c1cc(NC(=O)c2cc(NC(=O)c3ccc(/C=C/c4cnc5ccccc5c4)cc3)cn2C)cn1C [Example 5] is strictly less than 4 µg/mL?
Not met

Would you kindly verify if MIC of CSc1ccc(/C=C/c2ccc(C(=O)Nc3cc(C(=O)Nc4cc(C(=O)NCCN5CCOCC5)n(C)c4)n(C)c3)cn2)cc1 [Example 25] is strictly less than 4 µg/mL?
Met

Would you kindly verify if MIC of Cn1cc(NC(=O)c2cc(NC(=O)c3ccc(/C=C/c4cnc5ccccc5c4)cc3)cn2C)cc1C(=O)NCCN1CCOCC1 [Example 2] is strictly less than 4 µg/mL?
Met

====

Test system: Aspergillus niger (IMI 1745)
Assay: MIC, Aspergillus niger
Format: cell-based
Settings: value in parentheses; na = not active
Protocol: The effects of compounds of the invention in relation to inhibiting the growth of various microorganisms was determined using methods known to those skilled in the art, for example in vitro methods as described in J. Med. Chem. 47, 2133-2156 (2004) and in vivo methods as described in J. Med. Microbiol. 46, 208-213 (1997), the disclosures of which documents are hereby incorporated by reference. […] From the observed pattern of colour, the MIC was determined. […]
Parameter Measured: Minimum inhibitory concentrations (MICs), A. niger (µg/mL)
Reply with just the number (in µg/mL).

What does the data say about its Minimum inhibitory concentrations (MICs), A. niger? Entry: Cn1cc(NC(=O)c2cc(NC(=O)c3ccc(/C=C/c4cc5ccccc5nc4On4nnc5ccccc54)cc3)cn2C)cc1C(=O)NCCN1CCOCC1
50

What does the data say about its Minimum inhibitory concentrations (MICs), A. niger? Entry: Cn1cc(NC(=O)c2cc(NC(=O)c3ccc(/C=C/c4ccc5ccccc5n4)cc3)cn2C)cc1C(=O)NCCN1CCOCC1
100

What does the data say about its Minimum inhibitory concentrations (MICs), A. niger? Entry: COc1ccc(/C=C/c2ccc(C(=O)Nc3cc(C(=O)Nc4cc(C(=O)NCCN5CCOCC5)n(C)c4)n(C)c3)cn2)cc1
50

What does the data say about its Minimum inhibitory concentrations (MICs), A. niger? Entry: COc1cccc(/C=C/c2cccc(C(=O)Nc3cc(C(=O)Nc4cc(C(=O)NCCCN(C)C)n(C)c4)n(C)c3)c2)c1
100

====

Would you kindly list MIC for each of these molecules?
Test system: Aspergillus niger (IMI 1745)
Assay: MIC, Aspergillus niger
Assay type: cell-based
Settings: value outside parentheses; read-out: Minimum inhibitory concentrations (MICs), A. niger
Procedure: The effects of compounds of the invention in relation to inhibiting the growth of various microorganisms was determined using methods known to those skilled in the art, for example in vitro methods as described in J. Med. Chem. 47, 2133-2156 (2004) and in vivo methods as described in J. Med. Microbiol. 46, 208-213 (1997), the disclosures of which documents are hereby incorporated by reference. […] From the observed pattern of colour, the MIC was determined. […]
Reply with just the number (in µM).

What does the data say about its MIC? Entry: Cn1cc(NC(=O)c2cc(NC(=O)c3ccc(/C=C/c4cc5ccccc5nc4On4nnc5ccccc54)cc3)cn2C)cc1C(=O)NCCN1CCOCC1
57

What does the data say about its MIC? Entry: COc1cccc(/C=C/c2cccc(C(=O)Nc3cc(C(=O)Nc4cc(C(=O)NCCCN(C)C)n(C)c4)n(C)c3)c2)c1
143

What does the data say about its MIC? Entry: Cn1cc(NC(=O)c2cc(NC(=O)c3ccc(/C=C/c4ccc5ccccc5n4)cc3)cn2C)cc1C(=O)NCCN1CCOCC1
134

What does the data say about its MIC? Entry: COc1ccc(/C=C/c2ccc(C(=O)Nc3cc(C(=O)Nc4cc(C(=O)NCCN5CCOCC5)n(C)c4)n(C)c3)cn2)cc1
69

====

Tested on: Candida albicans (NCPF3179)
Assay: MIC, Candida albicans
Type: cell-based
Details: Candida albicans, NCPF3179; value in parentheses; na = not active; read-out: Minimum inhibitory concentrations (MICs), C. albicans
Parameter Measured: MIC (µg/mL)
Reply with just the number (in µg/mL).

What does the data say about its MIC? Entry: Cn1cc(NC(=O)c2cc(NC(=O)c3cc(/C=C/c4cnc5ccccc5c4)cn3C)cn2C)cc1C(=O)NCCN1CCOCC1 [Example 10]
100

What does the data say about its MIC? Entry: CC(C)CCc1sc(NC(=O)c2cc(NC(=O)c3ccc(/C=C/c4cc5ccccc5nc4On4nnc5ccccc54)cc3)cn2C)nc1C(=O)NCCN1CCOCC1 [Example 18]
100

What does the data say about its MIC? Entry: CC(C)CCc1sc(NC(=O)c2cc(NC(=O)c3ccc(/C=C/c4cnc5ccccc5c4)cc3)cn2C)nc1C(=O)NCCN1CCOCC1 [Example 16]
50

What does the data say about its MIC? Entry: COc1cccc(/C=C/c2ccc(C(=O)Nc3cc(C(=O)Nc4cc(C(=O)NCCCN(C)C)n(C)c4)n(C)c3)cc2)c1 [Example 4]
100

====

Would you kindly list MIC for each of these compounds?
Tested on: Streptococcus faecalis (NCTC 775)
Test: MIC, Streptococcus faecalis
Assay type: cell-based
Conditions: Enterococcus faecalis, NCTC775; value in parentheses; na = not active; read-out: Minimum inhibitory concentrations (MICs), St. faecalis
Answers without a unit are incomplete; give the number and then its unit.

What does the data say about its MIC? Entry: Cn1cc(NC(=O)c2cc(NC(=O)c3ccc(/C=C/c4cnc5ccccc5c4)cc3)cn2C)cc1C(=O)NCCN1CCOCC1
25 µg/mL

What does the data say about its MIC? Entry: COc1ccc(/C=C/c2ccc3cc(C(=O)Nc4cc(C(=O)Nc5cc(C(=O)NCCN6CCOCC6)n(C)c5)n(C)c4)ccc3n2)cc1
25 µg/mL

What does the data say about its MIC? Entry: Cn1cccc1/C=C/c1ccc(C(=O)Nc2cc(C(=O)Nc3cc(C(=O)NCCN4CCOCC4)n(C)c3)n(C)c2)cc1
12.5 µg/mL

What does the data say about its MIC? Entry: Cn1cc(NC(=O)c2cc(NC(=O)c3ccc(/C=C/c4ccc5ccccc5c4)cc3)cn2C)cc1C(=O)NCCN1CCOCC1
100 µg/mL

What does the data say about its MIC? Entry: COc1cccc(/C=C/c2ccc(C(=O)Nc3cc(C(=O)Nc4cc(C(=O)NCCN5CCOCC5)n(C)c4)n(C)c3)cc2)c1
50 µg/mL

What does the data say about its MIC? Entry: CN(C)CCCNC(=O)c1cc(NC(=O)c2cc(NC(=O)c3ccc(/C=C/c4ccncc4)cc3)cn2C)cn1C
25 µg/mL

What does the data say about its MIC? Entry: CN(C)CCCNC(=O)c1cc(NC(=O)c2cc(NC(=O)c3ccc(/C=C/c4cnc5ccccc5c4)cc3)cn2C)cn1C
50 µg/mL

What does the data say about its MIC? Entry: Cn1cc(NC(=O)c2cc(NC(=O)c3cc(/C=C/c4cnc5ccccc5c4)cn3C)cn2C)cc1C(=O)NCCN1CCOCC1
12.5 µg/mL

What does the data say about its MIC? Entry: CN(C)CCCNC(=O)c1cc(NC(=O)c2cc(NC(=O)c3cc(/C=C/c4ccc([N+](=O)[O-])cc4)cn3C)cn2C)cn1C
50 µg/mL

What does the data say about its MIC? Entry: CSc1ccc(/C=C/c2ccc(C(=O)Nc3cc(C(=O)Nc4cc(C(=O)NCCN5CCOCC5)n(C)c4)n(C)c3)cn2)cc1
25 µg/mL

What does the data say about its MIC? Entry: CSc1ccc(/C=C/c2ccc3cc(C(=O)Nc4cc(C(=O)Nc5cc(C(=O)NCCN6CCOCC6)n(C)c5)n(C)c4)ccc3n2)cc1
100 µg/mL
